# test.target: UniProt:Q8N884
quantity: pIC50
Convention used: pIC50 is expressed as -log10 of the molar concentration.

compound | quantity | result.value
O=C(O)[C@@H]1C[C@H](Oc2ncc(-n3cc(Cl)cn3)cc2C2(F)CCOCC2)CN1c1nc(C(F)F)nc2c1oc1ccccc12 [Example 5.01] | pIC50 | 7.92
COc1cc(-c2cnc(O[C@H]3C[C@@H](C(=O)O)N(c4nc(C(F)F)nc5c4oc4ccccc45)C3)c([C@@]3(F)CCN(C(C)=O)C[C@@H]3C)c2)c(F)cn1 [Example 3.03] | pIC50 | 7.92
C[C@H]1CS(=O)(=O)C(C)(C)C[C@@]1(F)c1cc(Cl)cnc1O[C@H]1C[C@@H](C(=O)O)N(c2nc(C(F)(F)F)nc3c2oc2ccccc23)C1 [Example 1.07] | pIC50 | 7.16

pIC50 lookup needed for O=C(O)[C@@H]1C[C@H](Oc2ncc(Cl)cc2[C@@]2(F)CCS(=O)(=O)C3(COC3)C2)CN1c1nc(C(F)F)nc2c1oc1ccccc12 [Example 1.19] , thanks.
8.30

pIC50 lookup needed for C[C@H]1CS(=O)(=O)CC[C@@]1(F)c1cc(Cl)cnc1O[C@H]1C[C@@H](C(=O)O)N(c2nc(C(F)F)nc3c2oc2ccccc23)C1 [Example 1.11] , thanks.
8.70

pIC50 lookup needed for C#Cc1cnc(O[C@H]2C[C@@H](C(=O)O)N(c3nc(C(F)F)nc4c3oc3ccccc34)C2)c([C@@]2(F)CC(C)(C)S(=O)(=O)C[C@@H]2C)c1 [Example 1.09] , thanks.
8.40

* * *

# System: IFN induction in dsDNA-stimulated human whole blood
# experimental.protocol: Human whole blood assay, dsDNA transfection, IFNα2a production (hWB IC50)
# Format: cell-based
# pIC50 annotations
Convention used: pIC50 is expressed as -log10 of the molar concentration.

Reference set, count: 4
compound | result.value
CC1(C)C[C@](F)(c2cc(Cl)cnc2O[C@H]2C[C@@H](C(=O)O)N(c3nc(C(F)F)nc4c3oc3ccccc34)C2)CCS1(=O)=O [Example 2.08] | 7.55
C#Cc1cnc(O[C@H]2C[C@@H](C(=O)O)N(c3nc(C(F)(F)F)nc4c3oc3ccccc34)C2)c(C2(F)CCS(=O)(=O)CC2)c1 [Example 2.07] | 7.01
C[C@H]1CS(=O)(=O)CC[C@@]1(F)c1cc(Cl)cnc1O[C@H]1C[C@@H](C(=O)O)N(c2nc(C(F)F)nc3c2oc2ccccc23)C1 [Example 1.11] | 6.71
C#Cc1cnc(O[C@H]2C[C@@H](C(=O)O)N(c3nc(C(F)(F)F)nc4c3oc3ccccc34)C2)c([C@@]2(F)CCS(=O)(=O)C[C@@H]2C)c1 [Example 2.12] | 8.10

Please examine the following record next.
Hi! What's the reported pIC50 for CO[C@]1(c2cc(Cl)cnc2O[C@H]2C[C@@H](C(=O)O)N(c3nc(C(F)F)nc4c3oc3ccccc34)C2)CC(C)(C)S(=O)(=O)C[C@@H]1C [Example 1.05] on IFN induction in dsDNA-stimulated human whole blood?
6.87

* * *

# Test system: IFN induction in dsDNA-stimulated human whole blood
# experimental.protocol: Human whole blood assay, dsDNA transfection, IFNα2a production (hWB IC50)
# Format: cell-based
quantity: IC50

compound | IC50
Cc1nc(N2C[C@@H](Nc3ccncc3)C[C@H]2C(=O)O)c2oc3ccccc3c2n1 [Example 38, reference compound] | > 9990 nM
CC1(C)C[C@](F)(c2cc(Cl)cnc2O[C@H]2C[C@@H](C(=O)O)N(c3nc(C(F)(F)F)nc4c3oc3ccccc34)C2)CCS1(=O)=O [Example 2.09] | 90 nM
C[C@H]1CS(=O)(=O)C(C)(C)C[C@]1(F)c1cc(Cl)cnc1O[C@H]1C[C@@H](C(=O)O)N(c2nc(C(F)F)nc3c2oc2ccccc23)C1 [Example 1.16] | 6 nM
C[C@H]1CS(=O)(=O)C(C)(C)C[C@]1(F)c1cc(Cl)cnc1O[C@H]1C[C@@H](C(=O)O)N(c2nc(C(F)(F)F)nc3c2oc2ccccc23)C1 [Example 1.06] | 24 nM
Cc1nc(N2C[C@@H](CC(=O)Nc3ccncc3)C[C@H]2C(=O)O)c2oc3ccccc3c2n1 [Example 28, reference compound] | > 9990 nM

Hi! What's the reported IC50 for O=C(O)[C@@H]1C[C@H](Oc2ncc(Br)cc2C2(F)CCS(=O)(=O)CC2)CN1c1nc(C(F)F)nc2c1oc1ccccc12 [Example 2.04] on IFN induction in dsDNA-stimulated human whole blood?
115 nM

Hi! What's the reported IC50 for C[C@H]1CS(=O)(=O)CC[C@]1(F)c1cc(Cl)cnc1O[C@H]1C[C@@H](C(=O)O)N(c2nc(C(F)(F)F)nc3c2oc2ccccc23)C1 [Example 2.10] on IFN induction in dsDNA-stimulated human whole blood?
15 nM

Hi! What's the reported IC50 for O=C(O)[C@@H]1C[C@H](Oc2ncc(Cl)cc2[C@]2(F)CCS(=O)(=O)C3(COC3)C2)CN1c1nc(C(F)F)nc2c1oc1ccccc12 [Example 1.20] on IFN induction in dsDNA-stimulated human whole blood?
55 nM

* * *

# test.target: Human cGAS (Homo sapiens (Human))
# Sequence (Q8N884 whole entry): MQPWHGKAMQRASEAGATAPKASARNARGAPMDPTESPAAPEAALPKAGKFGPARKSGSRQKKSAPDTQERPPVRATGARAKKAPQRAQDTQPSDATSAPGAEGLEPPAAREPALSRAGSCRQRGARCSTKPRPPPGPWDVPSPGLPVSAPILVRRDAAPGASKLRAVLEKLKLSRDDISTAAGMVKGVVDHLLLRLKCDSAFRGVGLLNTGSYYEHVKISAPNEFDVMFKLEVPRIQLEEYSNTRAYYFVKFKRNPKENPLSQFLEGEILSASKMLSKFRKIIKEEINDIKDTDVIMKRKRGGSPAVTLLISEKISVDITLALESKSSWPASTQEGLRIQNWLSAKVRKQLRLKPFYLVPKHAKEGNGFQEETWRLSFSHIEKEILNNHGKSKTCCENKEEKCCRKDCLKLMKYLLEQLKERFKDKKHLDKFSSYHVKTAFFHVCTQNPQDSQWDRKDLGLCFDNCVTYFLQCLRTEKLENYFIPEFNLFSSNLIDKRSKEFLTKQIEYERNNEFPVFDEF
# experimental.protocol: Human cGAS enzyme assay (hcGAS IC50, in vitro), cGAMP formation by RapidFire MS;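 also: compounds preincubated 60 min, then GTP and ATP (30 µM each) added for 90 min at room temperature, cGAMP read relative to cyclic-di-GMP internal standard, no-enzyme/DNA wells as 0%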
# Type: biochemical
# condition.details: 45 bp dsDNA, GTP/ATP
# pIC50 annotations
Convention used: pIC50 is expressed as -log10 of the molar concentration.

Reference set, count: 2
smiles.text | pIC50
C#Cc1cnc(O[C@H]2C[C@@H](C(=O)O)N(c3nc(C(F)(F)F)nc4c3oc3ccccc34)C2)c([C@@]2(F)CC(C)(C)S(=O)(=O)C[C@@H]2C)c1 | 8.40
C[C@H]1CS(=O)(=O)CC[C@]1(F)c1cc(Cl)cnc1O[C@H]1C[C@@H](C(=O)O)N(c2nc(C(F)F)nc3c2oc2ccccc23)C1 | 8.70

pIC50 lookup needed for C[C@H]1COCC[C@]1(O)c1cc(Cl)cnc1O[C@H]1C[C@@H](C(=O)O)N(c2nc(C(F)F)nc3c2oc2ccccc23)C1 , thanks.
8.30

pIC50 lookup needed for C#Cc1cnc(O[C@H]2C[C@@H](C(=O)O)N(c3nc(C(F)F)nc4c3oc3ccccc34)C2)c([C@]2(F)CCS(=O)(=O)C[C@H]2C)c1 , thanks.
8.30

pIC50 lookup needed for CC1(C)C[C@](F)(c2cc(Cl)cnc2O[C@H]2C[C@@H](C(=O)O)N(c3nc(C(F)(F)F)nc4c3oc3ccccc34)C2)CCS1(=O)=O , thanks.
7.96

pIC50 lookup needed for CC(=O)N1CC[C@](F)(c2cc(Cl)cnc2O[C@H]2C[C@@H](C(=O)O)N(c3nc(C(F)F)nc4c3oc3ccccc34)C2)[C@@H](C)C1 , thanks.
8.40

* * *

# pIC50 annotations
# System: IFN induction in dsDNA-stimulated human whole blood
# experimental.protocol: Human whole blood assay, dsDNA transfection, IFNα2a production (hWB IC50);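 also: cGAS pathway activity, IFNα2a in plasma by MSD immunoassay after 22 h at 37 °C, 8 concentrations up to 10 µM in 0.1% DMSO, DMSO controls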
# Assay type: cell-based
Convention used: pIC50 is expressed as -log10 of the molar concentration.

Reference set, count: 4
compound | pIC50
C[C@H]1COCC[C@]1(F)c1cc(-c2cnn(C(F)F)c2)cnc1O[C@H]1C[C@@H](C(=O)O)N(c2nc(C(F)F)nc3c2oc2ccccc23)C1 | 7.09
C#Cc1cnc(O[C@H]2C[C@@H](C(=O)O)N(c3nc(C(F)(F)F)nc4c3oc3ccccc34)C2)c(C23CCOCC2C3)c1 (stereo partly drawn) | 5.82
C#Cc1cnc(O[C@H]2C[C@@H](C(=O)O)N(c3nc(C(F)F)nc4c3oc3ccccc34)C2)c([C@@]2(F)CC(C)(C)S(=O)(=O)C[C@@H]2C)c1 | 8.40
COC(=O)[C@@H]1C[C@H](Oc2ncc(Cl)cc2[C@@]2(OC)CC(C)(C)S(=O)(=O)C[C@@H]2C)CN1c1nc(C(F)F)nc2c1oc1ccccc12 | 5.70

Please examine the following record next.
pIC50 lookup needed for COc1cc(-c2cnc(O[C@H]3C[C@@H](C(=O)O)N(c4nc(C(F)F)nc5c4oc4ccccc45)C3)c([C@@]3(F)CCN(C(C)=O)C[C@@H]3C)c2)c(F)cn1 , thanks.
7.28

* * *

# System: IFN induction in virus-stimulated THP1 cells
# experimental.protocol: Human cGAS cell assay, baculovirus-stimulated THP1-Dual cells, Lucia luciferase reporter (THP1(vir) IC50);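 also: IRF-dependent luminescence, 8 concentrations up to 10 µM in 1% DMSO, 0% = unstimulated cells, 100% = DMSO plus virus, counter assay stimulated with cGAMP downstream of cGAS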
# Format: cell-based
# condition.details: Homo sapiens, THP-1; baculovirus-stimulated THP1-Dual cells, 18 h
# pIC50 annotations
Convention used: pIC50 is expressed as -log10 of the molar concentration.

Reference set, count: 3
compound | test.target | pIC50
C[C@H]1COCC[C@]1(F)c1cc(-c2cccc(N(C)C)c2)cnc1O[C@H]1C[C@@H](C(=O)O)N(c2nc(C(F)F)nc3c2oc2ccccc23)C1 [Example 6.04] | IFN induction in virus-stimulated THP1 cells | 7.68
C#Cc1cnc(O[C@H]2C[C@@H](C(=O)O)N(c3nc(C(F)(F)F)nc4c3oc3ccccc34)C2)c([C@@]2(F)CC(C)(C)S(=O)(=O)C[C@@H]2C)c1 [Example 1.08] | IFN induction in virus-stimulated THP1 cells | 8.40
O=C(O)[C@@H]1C[C@H](Oc2ncc(Cl)cc2[C@@]2(F)CCS(=O)(=O)C3(CC3)C2)CN1c1nc(C(F)F)nc2c1oc1ccccc12 [Example 1.18] | IFN induction in virus-stimulated THP1 cells | 6.27

pIC50 lookup needed for C#Cc1cnc(O[C@H]2C[C@@H](C(=O)O)N(c3nc(C(F)F)nc4c3oc3ccccc34)C2)c(C2(F)CCS(=O)(=O)CC2)c1 [Example 2.03] , thanks.
6.95

pIC50 lookup needed for C[C@H]1CN(C2COC2)CC[C@]1(F)c1cc(Cl)cnc1O[C@H]1C[C@@H](C(=O)O)N(c2nc(C(F)F)nc3c2oc2ccccc23)C1 [Example 1.23] , thanks.
6.73

pIC50 lookup needed for C#Cc1cnc(O[C@H]2C[C@@H](C(=O)O)N(c3nc(C(F)F)nc4c3oc3ccccc34)C2)c([C@]2(F)CCOC[C@@H]2C)c1 [Example 1.03] , thanks.
6.55

pIC50 lookup needed for CO[C@]1(c2cc(Cl)cnc2O[C@H]2C[C@@H](C(=O)O)N(c3nc(C(F)F)nc4c3oc3ccccc34)C2)CC(C)(C)S(=O)(=O)C[C@@H]1C [Example 1.05] , thanks.
7.36

pIC50 lookup needed for C[C@H]1CS(=O)(=O)CC[C@@]1(F)c1cc(Cl)cnc1O[C@H]1C[C@@H](C(=O)O)N(c2nc(C(F)F)nc3c2oc2ccccc23)C1 [Example 1.11] , thanks.
6.14

pIC50 lookup needed for O=C(O)[C@@H]1C[C@H](Oc2ncc(Cl)cc2[C@]2(F)CCOC[C@@H]2C(F)(F)F)CN1c1nc(C(F)F)nc2c1oc1ccccc12 [Example 1.25] , thanks.
6.15

pIC50 lookup needed for N#CN1CCC(F)(c2cc(Cl)cnc2O[C@H]2C[C@@H](C(=O)O)N(c3nc(C(F)F)nc4c3oc3ccccc34)C2)CC1 [Example 2.05] , thanks.
6.14
